We begin with a simple list: items and their reported DC50.
# System Name: EGFR (HCC827 cells) (Homo sapiens, UniProt P00533, DEL746-750)
# Construct: endogenous in cells; host or cells: HCC827
# Sequence (P00533 with tags, fused parts or gaps DEL746-750): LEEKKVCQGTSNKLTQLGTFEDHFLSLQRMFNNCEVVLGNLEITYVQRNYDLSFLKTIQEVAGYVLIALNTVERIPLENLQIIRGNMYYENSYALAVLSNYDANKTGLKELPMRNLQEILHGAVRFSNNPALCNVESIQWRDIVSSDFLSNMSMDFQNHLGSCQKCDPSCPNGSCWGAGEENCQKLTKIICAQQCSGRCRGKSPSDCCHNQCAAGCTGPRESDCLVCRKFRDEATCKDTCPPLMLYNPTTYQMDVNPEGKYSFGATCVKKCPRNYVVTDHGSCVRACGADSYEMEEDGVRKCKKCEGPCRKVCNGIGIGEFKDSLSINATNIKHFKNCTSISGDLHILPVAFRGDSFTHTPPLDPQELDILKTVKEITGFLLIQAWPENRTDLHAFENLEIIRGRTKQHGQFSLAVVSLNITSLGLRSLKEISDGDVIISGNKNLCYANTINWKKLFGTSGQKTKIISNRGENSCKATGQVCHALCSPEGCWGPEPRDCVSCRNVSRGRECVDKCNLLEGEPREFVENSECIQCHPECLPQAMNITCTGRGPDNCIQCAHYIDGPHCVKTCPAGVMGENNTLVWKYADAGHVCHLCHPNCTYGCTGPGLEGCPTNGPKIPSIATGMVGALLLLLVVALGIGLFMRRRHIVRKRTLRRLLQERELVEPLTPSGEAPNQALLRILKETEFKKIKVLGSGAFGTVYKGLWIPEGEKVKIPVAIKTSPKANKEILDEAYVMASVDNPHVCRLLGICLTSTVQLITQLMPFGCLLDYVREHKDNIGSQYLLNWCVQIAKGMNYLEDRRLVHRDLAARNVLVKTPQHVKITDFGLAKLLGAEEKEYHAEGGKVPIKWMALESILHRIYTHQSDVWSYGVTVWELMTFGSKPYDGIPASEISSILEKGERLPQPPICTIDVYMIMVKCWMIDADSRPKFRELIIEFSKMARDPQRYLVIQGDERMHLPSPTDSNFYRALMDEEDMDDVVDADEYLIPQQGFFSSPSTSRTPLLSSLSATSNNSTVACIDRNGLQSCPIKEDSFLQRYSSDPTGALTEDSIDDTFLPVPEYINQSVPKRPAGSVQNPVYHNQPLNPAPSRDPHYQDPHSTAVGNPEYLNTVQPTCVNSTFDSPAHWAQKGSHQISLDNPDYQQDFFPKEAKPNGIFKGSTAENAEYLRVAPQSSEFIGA
# Test Summary: EGFR degradation HTRF assay, HCC827 cells
# Assay type: cell-based
# Condition Label: HCC827, 16h treatment
Field: numeric (nM). Do not append units.

The examples below pair each entry with its known result.
CCc1cc(Nc2ncc(Br)c(Nc3ccc4nccnc4c3P(C)(C)=O)n2)c(OC)cc1N1CCC(N2CCN(CCC3CCN(c4ccc(C5CCC(=O)NC5=O)cc4)CC3)CC2)CC1 (stereo not drawn)
2.05
COc1cc(N2CCC(N(C)CCC3CCN(c4ccc(C5CCC(=O)NC5=O)cc4)CC3)CC2)c(C)cc1Nc1ncc(Br)c(Nc2ccc3nccnc3c2P(C)(C)=O)n1 (stereo not drawn)
15.2
COc1cc(N2CCC(N3CCN(CCc4ccc(NC5CCC(=O)NC5=O)cc4)CC3)CC2)ccc1Nc1ncc(Cl)c(Nc2ccccc2NS(C)(=O)=O)n1 (stereo not drawn)
8.56
CCc1cc(Nc2ncc(Br)c(Nc3ccc4c(=O)n(C)ncc4c3P(C)(C)=O)n2)c(OC)cc1N1CCC(N2CCN(CCC3CCN(c4cc(F)c(C5CCC(=O)NC5=O)c(F)c4)CC3)CC2)CC1 (stereo not drawn)
5.43

stdin: Consider the compound shown here: CN(c1ccccc1Nc1nc(Nc2ccc(N3CC4(CN(CCc5ccc(C6CCC(=O)NC6=O)cc5)C4)C3)c(F)c2)ncc1Cl)S(C)(=O)=O (stereo not drawn) What is its recorded DC50?
stdout: 38

stdin: Quick one: DC50 of CCc1cc(Nc2ncc(Br)c(Nc3ccc4nccnc4c3P(C)(C)=O)n2)c(OC)cc1N1CCC(N2CCN(CCC3CCN(c4ccc(C5CCC(=O)NC5=O)c(C#N)c4)CC3)CC2)CC1 (stereo not drawn) ?
stdout: 6.2

stdin: DC50 lookup needed for COc1cc(N2CCN(CC3CCN(c4ccc(N5CCC(=O)NC5=O)cc4F)CC3)CC2)c(C)cc1Nc1ncc(Br)c(Nc2ccc3nccnc3c2P(C)(C)=O)n1 , thanks.
stdout: 118

stdin: Consider the compound shown here: CCc1cc(Nc2ncc(Br)c(Nc3ccc4nccnc4c3P(C)(C)=O)n2)c(OC)cc1N1CCC(N2CCN(CC3CCN(c4ccc5c(c4)C(=O)N(C4CCC(=O)NC4=O)C5=O)CC3)CC2)CC1 (stereo not drawn) What is its recorded DC50?
stdout: 5.35

stdin: # input compound: CCc1cc(Nc2ncc(Br)c(Nc3ccc4nccnc4c3P(C)(C)=O)n2)c(OC)cc1N1CCC(N2CCN(C(=O)C3CN(c4ccc5c(c4)C(=O)N(C4CCC(=O)NC4=O)C5=O)C3)CC2)CC1 (stereo not drawn) ; wanted: its DC50
stdout: 2.06
